Data provenance: ChEMBL document CHEMBL3507680

# assay.details: Human HepG2 cell viability assay in 384 well format
# Type: toxicity, cell-based
# Set-up: dose 125 nL, time 70.5 hour; concentration not given beside the values
# applied.conditions: HepG2 cells, read-out: Inhibition
The following molecules are shown together with reported cytotoxicity at 70.5 h values.
Number only, in %; omit the unit.

O=C(NCCn1nc2ccccn2c1=O)c1scnc1Cl	-2.79
Cc1nc(-c2ccccc2)n(CC(=O)NC(C)C2CC2)n1 (configuration not stated)	-5.73
COCCNC(=O)c1ccc(NCc2csc(C)n2)cc1Cl	-2.04

If you can, please state the reported cytotoxicity at 70.5 h value of Cc1c(C2CCCN(C(=O)OC(C)(C)C)C2)n2c(nc1=O)CCC2 (configuration not stated) .
-5.64

====

Catalogue of cytotoxicity at 70.5 h values
# assay.details: Human HepG2 cell viability assay in 384 well format
# Assay type: toxicity, cell-based
# Parameters: dose 125 nL, time 70.5 hour; concentration not given beside the values
# applied.conditions: HepG2 cells, read-out: Inhibition
Number only, in %; omit the unit.

Reference set (3 entries):
NC(=O)N1CCCN(C2CCc3ccc(F)cc32)CC1 (centres undefined)	-1.61
Cn1nc2c(cc1=O)CN(Cc1nc(-c3cccs3)no1)CC2	-14.3
O=C(c1ccc(F)c(F)c1)N1CCCSCC1CN1CCCC1 (centres undefined)	-0.49

Next, consider the following compound.
# query: cytotoxicity at 70.5 h of entry c1ccc(CNc2cc(C3CCCNC3)ccn2)nc1 (centres undefined)
20.2

====

# assay.details: Human HepG2 cell viability assay in 384 well format
# Format: toxicity, cell-based
# Design: dose 125 nL, time 70.5 hour; concentration not given beside the values
# applied.conditions: HepG2 cells, read-out: Inhibition
assay.metric: cytotoxicity at 70.5 h (%)
# number only, unit % dropped from output

O=C(c1cnc2ccccn12)N1CCCC(c2ccn[nH]2)C1 (stereo not given)	-11.2
Cc1nn(C)c(N(C)C)c1CNCc1ccc(Cn2cncn2)cc1	22.4
CCc1ccccc1OCCNCCc1c[nH]cn1	29.6
O=C1CC(c2cccs2)Cc2[nH]c(=O)c(C(=O)NC3CCCC3)cc21 (stereo not given)	-12.4
Cc1nc(CCNC2CCN(Cc3ccccc3)C2)sc1C (stereo not given)	-4.05
NC(=O)C1CCCCN1C(=O)c1ccc(Br)s1 (stereo not given)	-5.06
Cc1cc(C[C@@H]2COC[C@@H]2NC(=O)CNC(=O)N(C)C)on1	9.05
COCc1ccccc1C(=O)N1CCCC(n2nc(C)cc2C)C1 (stereo not given)	24.9
Nc1cccc(C2CN(C(=O)CN3CCOCC3)CCO2)n1 (stereo not given)	-4.5

Would you kindly share the measured cytotoxicity at 70.5 h for Cc1cc(NC(=O)CN(C)C2CCCN(c3cccnn3)C2)n(C)n1 (stereo not given) ?
-4.81

====

# assay.details: Human HepG2 cell viability assay in 384 well format
# Assay type: toxicity, cell-based
# Parameters: dose 125 nL, time 70.5 hour; concentration not given beside the values
# applied.conditions: HepG2 cells, read-out: Inhibition
Entries and their cytotoxicity at 70.5 h
Number only, in %; omit the unit.

Cc1nc(N2CCOCC2)nc2c1COCC21CCN(CC2CC2)C1 (centres undefined)	8.58
CNS(=O)(=O)c1cccc(C(C)NCc2ccccc2OC)c1 (centres undefined)	-4.76
Cc1cnn(CC2CCCN2C(=O)Cc2cn3ccsc3n2)c1 (centres undefined)	-6.38

Moving on to another molecule below.
Need cytotoxicity at 70.5 h of CCOC(=O)[C@@H]1[C@@H](c2ccccc2)CN2CCNC[C@H]12 , thanks.
-11
